FYI, the data here is from patent US20250197424A1.

Experiment: In vivo bioavailability experiment in mice (pharmacokinetics)
Details: mouse, plasma; ICR mice, oral, dose 30 (30 mg/kg in method); read-out: Mean residence time
Where a name gives a salt, the structure may show the parent alone.
readout_name: MRT (h)
Give bare numbers, in h.

{"columns": ["compound", "readout_name", "value_unit", "result_value"],
 "data": [
  ["CCc1cccc2cc(O)cc(-c3c(F)c4c5c(nc(OC[C@]67C[C@@H](F)CN6C[C@@H](COC)C7)nc5c3F)N3CC5CCC(N5)C3CO4)c12 (single isomer, unassigned) [Compound 18b, dihydrochloride]", "MRT", "h", 3.77]
]}

Hi! Can you tell me MRT for each of these compounds?
1. CCc1cccc2cc(O)cc(-c3c(F)c4c5c(nc(OC[C@@]67CCCN6C[C@H](F)C7)nc5c3F)N3CC5CCC(N5)C3CCO4)c12 (single isomer, unassigned) [13a′]
2. CCc1cccc2cc(O)cc(-c3c(F)c4c5c(nc(OC[C@]67C[C@@H](F)CN6C[C@@H](CN6C[C@@H](C)O[C@@H](C)C6)C7)nc5c3F)N3CC5CCC(N5)C3CO4)c12 (single isomer, unassigned) [Compound 25b, trihydrochloride]

Out:
[4.53, 3.15]
